- assay_system: BCL6 BTB domain (Homo sapiens (Human), UniProt P41182)
- assay_notes: Surface plasmon resonance (SPR) assay
- Format: binding
- condition_notes: BCL6 BTB domain captured on SA chip, single cycle kinetics
measurement_name: log10 of Kd (log10 of the value in µM)
The base-10 logarithm of Kd, taken with Kd in µM, is what appears here.

Use these answered entries as a reference point.
compound	measurement_name	measured_value
C[C@H]1COCCN1c1cc(NC(=O)Cn2cc(-c3cc(Cl)c(O)c(C(N)=O)c3)c3c(=O)n(CC#Cc4cnn(C)c4)cnc32)c(Cl)cn1 [Compound I-82]	log10 of Kd	-2.22
Cc1nc2c(c(-c3cc(F)c(O)c(C(N)=O)c3)cn2CC(=O)Nc2cc(N3CC(C)(C)N(C)C(C)(C)C3)ncc2Cl)c(=O)n1C [Compound I-250]	log10 of Kd	-1.79
C[C@@H]1CN(C)C[C@H](C)N1c1cc(NC(=O)Cn2cc(-c3cc(C(N)=O)c(O)c(F)c3F)c3c(=O)n(C)cnc32)c(Cl)c(F)n1 [Compound I-229]	log10 of Kd	-1.79
Cc1nc2c(c(-c3cc(C(N)=O)c(O)c(F)c3F)cn2CC(=O)Nc2cc(N3CCOC[C@@H]3C)nc(F)c2Cl)c(=O)n1C [Compound I-316]	log10 of Kd	-1.62
C[C@@H](C1CC1)N1CCN(c2cc(NC(=O)Cn3cc(-c4cc(C(N)=O)c(O)c(F)c4F)c4c(=O)n(C)cnc43)c(Cl)c(F)n2)[C@@H](C)C1 [Compound I-454]	log10 of Kd	-1.87

Continue with the compound presented below.
Entry Cn1cnc2c(c(-c3cc(Cl)c(O)c(C(N)=O)c3)cn2CC(=O)Nc2cc3cnn(C)c3cc2Cl)c1=O [Compound I-181] : reported log10 of Kd = ? -0.21
